- assay.text: refractive index (Na D-line) (dimensionless)
- applied.conditions: 353.15 K; 101.33 kPa; Liquid; Standard Abbe refractometry
± gives the expanded uncertainty stated by the source.
recorded.endpoint: refractive index

Examples with their reported refractive index follow.
In: Please report the recorded refractive index for CCn1cc[n+](C)c1.F[B-](F)(F)F [1-ethyl-3-methylimidazolium tetrafluoroborate] .
Out: 1.39858 ± 0.00061

In: Suppose we examine the molecule `CCC[N+]1(C)CCCC1.O=S(=O)([N-]S(=O)(=O)C(F)(F)F)C(F)(F)F` ; what refractive index value has been reported?
Out: 1.40589 ± 0.00062

More entries:
In: Bench note: what refractive index did CCn1cc[n+](C)c1.O=S(=O)([O-])O [1-ethyl-3-methylimidazolium hydrogen sulfate] show?
Out: 1.48512 ± 0.00061

In: Entry CCn1cc[n+](C)c1.CS(=O)(=O)[O-] [1-ethyl-3-methylimidazolium methanesulfonate] has what refractive index?
Out: 1.48095 ± 0.00063

In: Give its refractive index value. Item: CCn1cc[n+](C)c1.N#CN=C=[N-] [1-ethyl-3-methylimidazolium dicyanamide]
Out: 1.49557 ± 0.00064

In: Quick one: refractive index for CCn1cc[n+](C)c1.N#C[S-] [1-ethyl-3-methylimidazolium thiocyanate] ?
Out: 1.53545 ± 0.00063

---

Reported refractive index is given for each of the following molecules.
- assay.text: refractive index (Na D-line) (dimensionless)
- applied.conditions: 348.15 K; 101.33 kPa; Liquid; Standard Abbe refractometry
Provide a numeric answer; units are not to be included.

In: Bench note: what refractive index did CCn1cc[n+](C)c1.F[B-](F)(F)F [1-ethyl-3-methylimidazolium tetrafluoroborate] show?
Out: 1.39975

Okay, next one:
In: I would be grateful if you could share the reported refractive index for CCn1cc[n+](C)c1.CS(=O)(=O)[O-] [1-ethyl-3-methylimidazolium methanesulfonate] .
Out: 1.4823

---

Measured mass density by item
- applied.conditions: 288.15 K; 101.33 kPa; Liquid; Vibrating tube method
Only the number, expressed in kg/m3, is required.

In: Given the compound CCn1cc[n+](C)c1.N#C[S-] [1-ethyl-3-methylimidazolium thiocyanate] , what is its reported mass density?
Out: 1121.7

In: Quick check: mass density of CCn1cc[n+](C)c1.O=S(=O)([O-])O [1-ethyl-3-methylimidazolium hydrogen sulfate] ?
Out: 1373.6

In: // mass density lookup, key: CCn1cc[n+](C)c1.N#CN=C=[N-] [1-ethyl-3-methylimidazolium dicyanamide]
Out: 1107.9

In: For the compound shown here, CCn1cc[n+](C)c1.CS(=O)(=O)[O-] [1-ethyl-3-methylimidazolium methanesulfonate] , give the reported mass density.
Out: 1248.4

Continuing:
In: mass density for CCn1cc[n+](C)c1.F[B-](F)(F)F [1-ethyl-3-methylimidazolium tetrafluoroborate] ?
Out: 1288.2

In: What value of mass density has been recorded for this entry: CCn1cc[n+](C)c1.N#C[B-](C#N)(C#N)C#N [1-ethyl-3-methylimidazolium tetracyanoborate]
Out: 1037

In: Which mass density value is on record for `CCC[N+]1(C)CCCC1.O=S(=O)([N-]S(=O)(=O)C(F)(F)F)C(F)(F)F` ?
Out: 1436.4

In: mass density lookup needed for `CCCCn1cc[n+](C)c1.O=S(=O)([N-]S(=O)(=O)C(F)(F)C(F)(F)C(F)(F)C(F)(F)F)C(F)(F)C(F)(F)C(F)(F)C(F)(F)F` , thanks.
Out: 1623.4

In: Find the recorded mass density belonging to `CCn1cc[n+](C)c1.O=S(=O)([N-]S(=O)(=O)C(F)(F)F)C(F)(F)F` and report it.
Out: 1528.7

In: State the recorded mass density for this entry: CCOS(=O)(=O)[O-].CCn1cc[n+](C)c1 [1-ethyl-3-methylimidazolium ethyl sulfate]
Out: 1244.3

---

# mass density per record follows
- applied.conditions: 338.15 K; 101.33 kPa; Liquid; Vibrating tube method
Enter your answer as a number in kg/m3; do not include the unit.

Examples with their reported mass density follow.
In: Param item = CCn1cc[n+](C)c1.O=S(=O)([O-])O [1-ethyl-3-methylimidazolium hydrogen sulfate] ; retrieve measured mass density.
Out: 1342.4

In: Give its mass density value. Item: CCn1cc[n+](C)c1.N#C[B-](C#N)(C#N)C#N [1-ethyl-3-methylimidazolium tetracyanoborate]
Out: 997.4

In: Give its mass density value. Item: CCn1cc[n+](C)c1.CS(=O)(=O)[O-] [1-ethyl-3-methylimidazolium methanesulfonate]
Out: 1214.8

Others:
In: Could you tell me which mass density is on file for CCOS(=O)(=O)[O-].CCn1cc[n+](C)c1 [1-ethyl-3-methylimidazolium ethyl sulfate] ?
Out: 1210.9

---

- assay.text: refractive index (Na D-line) (dimensionless)
- applied.conditions: 318.15 K; 101.33 kPa; Liquid; Standard Abbe refractometry
recorded.endpoint: refractive index
Respond using a number only.

In: Form field: reported refractive index of CCn1cc[n+](C)c1.F[B-](F)(F)F [1-ethyl-3-methylimidazolium tetrafluoroborate]
Out: 1.4069

Others:
In: Could you tell me which refractive index is on file for CCn1cc[n+](C)c1.CS(=O)(=O)[O-] [1-ethyl-3-methylimidazolium methanesulfonate] ?
Out: 1.49039

In: Dear colleague, I am looking for the recorded refractive index of the following compound: CCn1cc[n+](C)c1.N#CN=C=[N-] [1-ethyl-3-methylimidazolium dicyanamide]
Out: 1.50655

In: # refractive index lookup, item CCn1cc[n+](C)c1.N#C[B-](C#N)(C#N)C#N [1-ethyl-3-methylimidazolium tetracyanoborate]
Out: 1.44081

In: Look up refractive index for this compound: CCn1cc[n+](C)c1.N#C[S-] [1-ethyl-3-methylimidazolium thiocyanate]
Out: 1.54557

In: Item `CCCCn1cc[n+](C)c1.O=S(=O)([N-]S(=O)(=O)C(F)(F)C(F)(F)C(F)(F)C(F)(F)F)C(F)(F)C(F)(F)C(F)(F)C(F)(F)F` has what recorded refractive index?
Out: 1.38222

In: Give the measured refractive index of CCn1cc[n+](C)c1.O=S(=O)([O-])O [1-ethyl-3-methylimidazolium hydrogen sulfate] .
Out: 1.49269

In: Quick check: refractive index of CCOS(=O)(=O)[O-].CCn1cc[n+](C)c1 [1-ethyl-3-methylimidazolium ethyl sulfate] ?
Out: 1.47395

In: Any idea what refractive index was measured for `CCC[N+]1(C)CCCC1.O=S(=O)([N-]S(=O)(=O)C(F)(F)F)C(F)(F)F` ?
Out: 1.41519

In: Quick one: refractive index of `CCn1cc[n+](C)c1.O=S(=O)([N-]S(=O)(=O)C(F)(F)F)C(F)(F)F` ?
Out: 1.4174

---

This listing pairs compounds with measured mass density.
- applied.conditions: 303.15 K; 101.33 kPa; Liquid; Vibrating tube method
Form entry: value (kg/m3) — number only.

In: Record request: mass density value, item CCn1cc[n+](C)c1.CS(=O)(=O)[O-] [1-ethyl-3-methylimidazolium methanesulfonate]
Out: 1238.2

Further cases:
In: Need mass density, item CCn1cc[n+](C)c1.O=S(=O)([O-])O [1-ethyl-3-methylimidazolium hydrogen sulfate]
Out: 1364.3

---

- assay.text: refractive index (Na D-line) (dimensionless)
- applied.conditions: 323.15 K; 101.33 kPa; Liquid; Standard Abbe refractometry
± gives the expanded uncertainty stated by the source.
compounds and their reported refractive index

Here are 9 compounds together with their reported answers.
In: What does the data say about its refractive index? Entry: CCn1cc[n+](C)c1.N#C[B-](C#N)(C#N)C#N [1-ethyl-3-methylimidazolium tetracyanoborate]
Out: 1.43913 ± 0.00066

In: I am curious: what refractive index value has been reported for CCn1cc[n+](C)c1.O=S(=O)([O-])O [1-ethyl-3-methylimidazolium hydrogen sulfate] ?
Out: 1.49161 ± 0.00061

In: Which refractive index value belongs to CCn1cc[n+](C)c1.F[B-](F)(F)F [1-ethyl-3-methylimidazolium tetrafluoroborate] ?
Out: 1.4057 ± 0.00061

In: Tell me the measured refractive index of CCOS(=O)(=O)[O-].CCn1cc[n+](C)c1 [1-ethyl-3-methylimidazolium ethyl sulfate] , please.
Out: 1.47262 ± 0.00062

In: # refractive index lookup, item CCn1cc[n+](C)c1.N#CN=C=[N-] [1-ethyl-3-methylimidazolium dicyanamide]
Out: 1.50502 ± 0.00064

In: Reported refractive index for `CCn1cc[n+](C)c1.O=S(=O)([N-]S(=O)(=O)C(F)(F)F)C(F)(F)F` : what is it?
Out: 1.41597 ± 0.00063

In: So what's the measured refractive index for this one? `CCC[N+]1(C)CCCC1.O=S(=O)([N-]S(=O)(=O)C(F)(F)F)C(F)(F)F`
Out: 1.41389 ± 0.00063

In: I am curious: what refractive index value has been reported for `CCCCn1cc[n+](C)c1.O=S(=O)([N-]S(=O)(=O)C(F)(F)C(F)(F)C(F)(F)C(F)(F)F)C(F)(F)C(F)(F)C(F)(F)C(F)(F)F` ?
Out: 1.38078 ± 0.00064

In: Recorded refractive index for CCn1cc[n+](C)c1.CS(=O)(=O)[O-] [1-ethyl-3-methylimidazolium methanesulfonate] , please?
Out: 1.48905 ± 0.00063

In the following, a different compound is considered.
In: Can you look up the measured refractive index of CCn1cc[n+](C)c1.N#C[S-] [1-ethyl-3-methylimidazolium thiocyanate] for me?
Out: 1.54409 ± 0.00064
